Listed here are molecules together with their documented % WT activity.
System: SULT1C1
method.description: SULT1C1 enzyme activity assay: sulfate conjugation of 4-nitrophenol with 35S-PAPS, COS-1 cytosol of recombinant allozymes
Format: biochemical, human
reported.conditions: recombinant allozyme in COS-1 cytosol; 10 mM 4-NP, 0.4 μM 35S-PAPS, pH 7.4; percentage of wild type SULT1C1 enzyme activity
Give the quantity in %, number only.

Asp200Val: SULT1C1 polypeptide having a valine at amino acid 200 in place of an aspartic acid (protein) MALTSDLGKQIKLKEVEGTLLQPATVDNWSQIQSFEAKPDDLLICTYPKAGTTWIQEIVDMIEQNGDVEKCQRAIIQHRHPFIEWARPPQPSGVEKAKAMPSPRILKTHLSTQLLPPSFWENNCKFLYVARNAKDCMVSYYHFQRMNHMLPDPGTWEEYFETFINGKVVWGSWFDHVKGWWEMKDRHQILFLFYEDIKRVPKHEIRKVMQFMGKKVDETVLDKIVQETSFEKMKENPMTNRSTVSKSILDQSISSFMRKGTVGDWKNHFTVAQNERFDEIYRRKMEGTSINFCMEL
48.1

// query Would you kindly share the measured % WT activity for Ser111Phe: SULT1C1 polypeptide having a phenylalanine at amino acid 111 in place of a serine (protein) MALTSDLGKQIKLKEVEGTLLQPATVDNWSQIQSFEAKPDDLLICTYPKAGTTWIQEIVDMIEQNGDVEKCQRAIIQHRHPFIEWARPPQPSGVEKAKAMPSPRILKTHLFTQLLPPSFWENNCKFLYVARNAKDCMVSYYHFQRMNHMLPDPGTWEEYFETFINGKVVWGSWFDHVKGWWEMKDRHQILFLFYEDIKRDPKHEIRKVMQFMGKKVDETVLDKIVQETSFEKMKENPMTNRSTVSKSILDQSISSFMRKGTVGDWKNHFTVAQNERFDEIYRRKMEGTSINFCMEL ?
// result 0
